biological target: GDP-bound KRAS wild-type protein (Homo sapiens, UniProt P01116); assay: Binding to KRAS by surface plasmon resonance (SPR), Single Cycle Kinetics; settings: SPR Single Cycle Kinetics, GDP-bound KRAS wild-type protein, 1:1 binding model; read-out: KRAS KD
Sequence (P01116 whole entry): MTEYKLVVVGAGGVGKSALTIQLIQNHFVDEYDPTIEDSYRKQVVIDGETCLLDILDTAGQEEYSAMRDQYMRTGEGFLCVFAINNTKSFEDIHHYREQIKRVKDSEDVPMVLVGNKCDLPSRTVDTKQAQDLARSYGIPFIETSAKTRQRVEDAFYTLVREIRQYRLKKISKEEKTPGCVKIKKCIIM
Where a SMILES comes first, the peptide text is derived from it. Bridges are numbered along the chain shown (N, C = ends). [ ]: non-standard residue; d: D form. hPhe(3-Cl-4-CF3) = N[C@@H](CCc1ccc(C(F)(F)F)c(Cl)c1)C(=O)O; NPrPhe(4-CF3) = CCCN[C@@H](Cc1ccc(C(F)(F)F)cc1)C(=O)O; NMeGly(cPent) = CN[C@H](C(=O)O)C1CCCC1; Hyp = O=C(O)[C@@H]1C[C@@H](O)CN1; NMeD = CN[C@@H](CC(=O)O)C(=O)O; NMeL = CN[C@@H](CC(C)C)C(=O)O; Ac5c = NC1(C(=O)O)CCCC1; Sar = CNCC(=O)O
MEASUREMENT NAME: pKd
As a rule, pKd stands for the negative log10 of the concentration, concentration in M.

{"columns": ["COMPOUND", "MEASUREMENT NAME", "DATA VALUE"],
 "data": [
  ["CCCN1C(=O)CN(C)C(=O)CNC(=O)[C@H]([C@@H](C)CC)NC(=O)[C@H](CC(C)C)N(C)C(=O)C[C@@H](C(=O)N(C)C)N(C)C(=O)[C@H](C2CCCC2)N(C)C(=O)C2(CCCC2)NC(=O)[C@@H]2C[C@@H](OCC)CN2C(=O)[C@H](CCc2ccc(C(F)(F)F)c(Cl)c2)NC(=O)CN(C)C(=O)[C@@H]1Cc1ccc(C(F)(F)F)cc1 [PP0421] ([NMeL]IG[Sar][NPrPhe(4-CF3)][Sar][hPhe(3-Cl-4-CF3)][Hyp](Et)[Ac5c][NMeGly(cPent)][NMeD]-NMe2; lactam N-11)", "pKd", 10.48]
]}

Moving on to another compound below.
Please give the measured pKd for this compound: CC[C@H](C)[C@@H]1NC(=O)[C@H](CC(C)C)N(C)C(=O)C[C@@H](C(=O)N2CCOCC2)N(C)C(=O)[C@H](C2CCCC2)N(C)C(=O)C2(CCCC2)NC(=O)[C@@H]2CCCN2C(=O)[C@H](CCc2cc(F)c(C(F)(F)F)c(F)c2)NC(=O)CN(C)C(=O)[C@H](Cc2ccc(C(F)(F)F)cc2)N2CCCCC[C@@H](C2=O)N(C)C(=O)CN(CC)C1=O [PP0483]
7.47
